# ASSAY_OVERVIEW: Residual rate (A90/A0×100) after 90 h accelerated deterioration in xenon weather meter X25, color developing durability
# Format: physicochemical
# COND: photochromic cured product, thickness 1 mm (kneading method); after 90 h accelerated deterioration
// values below are reported Residual rate
Kindly answer with a numeric value in %, unit omitted.

Example results:
# COMPOUND, QUANTITY_UNIT, Residual rate
rows = [
    ("CCC1(CC)c2cc(C)ccc2-c2c1c1c(c3cc(C)c(N4CCc5ccccc54)cc23)OC(c2ccc(C)cc2)(c2ccc(OC)cc2)C=C1 (stereo not shown) [Formula (42A)]", "%", 75),
    ("COc1ccc(C2(c3ccc(OC)cc3)C=Cc3c4c(c5cc(N6CCc7ccccc76)c(OC)cc5c3O2)-c2ccccc2C4(C)C)cc1 [Formula (28A)]", "%", 79),
    ("COCCCC1(CCCOC)c2ccccc2-c2c1c1c(c3cc(OC)c(N4CC(C)c5ccccc54)cc23)OC(c2ccc(OC)cc2)(c2ccc(OC)cc2)C=C1 (stereo not shown) [Formula (39A)]", "%", 76),
]

Quick one: Residual rate of COCCOCCOCCC1(CCOCCOCCOC)c2ccccc2-c2c1c1c(c3cc(OC)c(N4CCc5cc(F)ccc54)cc23)OC(c2ccc(OC)cc2)(c2ccc(OC)cc2)C=C1 [Formula (50A)] ?
76

Quick one: Residual rate of CCCC1(C)c2cc(Oc3ccccc3)ccc2-c2c1c1c(c3cc(OC)c(N4CCc5ccccc54)cc23)OC(c2ccc(OC)cc2)(c2ccc3c(c2)CCO3)C=C1 (stereo not shown) [Formula (70A)] ?
77

Quick one: Residual rate of CCC1(CC)CCC2(CC1)c1cc(OC(F)(F)F)ccc1-c1c2c2c(c3cc(OC)c(N4CCc5ccccc54)cc13)OC(c1ccc(OC)cc1)(c1ccc(OCCCO[Si](C)(C)CC[Si](O[Si](C)(C)C)(O[Si](C)(C)C)O[Si](C)(C)C)cc1)C=C2 (stereo not shown) [Formula (74A)] ?
77

Quick one: Residual rate of COc1ccc(C2(c3ccc(OC)cc3)C=Cc3c4c(c5cc(N6CCc7ccccc76)c(-c6ccc(OC)cc6OC)cc5c3O2)-c2ccccc2C4(C)C)cc1 [Formula (I), reference compound] ?
74
